biological target: Ubiquitin carboxyl-terminal hydrolase 1/WD repeat-containing protein 48 (Homo sapiens, UniProt O94782+Q8TAF3); experiment: In Vitro USP1  Inhibitory Activity
Sequence (O94782 whole entry): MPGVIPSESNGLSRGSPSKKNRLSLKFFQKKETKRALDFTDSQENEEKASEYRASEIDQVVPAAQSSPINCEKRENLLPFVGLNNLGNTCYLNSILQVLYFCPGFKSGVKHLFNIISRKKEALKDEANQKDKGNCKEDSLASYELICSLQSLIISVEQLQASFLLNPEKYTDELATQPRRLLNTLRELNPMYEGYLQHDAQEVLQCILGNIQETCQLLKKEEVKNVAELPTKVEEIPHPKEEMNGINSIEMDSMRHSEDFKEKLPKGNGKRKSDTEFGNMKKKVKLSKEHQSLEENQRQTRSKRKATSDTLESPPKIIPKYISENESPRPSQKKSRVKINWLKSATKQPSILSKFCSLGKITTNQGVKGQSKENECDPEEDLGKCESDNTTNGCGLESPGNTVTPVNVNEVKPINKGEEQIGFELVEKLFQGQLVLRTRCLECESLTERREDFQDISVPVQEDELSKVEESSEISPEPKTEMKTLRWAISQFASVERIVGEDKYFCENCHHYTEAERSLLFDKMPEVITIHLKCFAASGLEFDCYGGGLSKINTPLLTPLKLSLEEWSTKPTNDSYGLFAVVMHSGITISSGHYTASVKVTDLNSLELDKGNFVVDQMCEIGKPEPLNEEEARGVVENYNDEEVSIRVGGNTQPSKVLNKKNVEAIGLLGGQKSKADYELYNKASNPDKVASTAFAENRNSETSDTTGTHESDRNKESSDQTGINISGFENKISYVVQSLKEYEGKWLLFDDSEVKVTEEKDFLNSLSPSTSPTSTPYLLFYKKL
Sequence (Q8TAF3 whole entry): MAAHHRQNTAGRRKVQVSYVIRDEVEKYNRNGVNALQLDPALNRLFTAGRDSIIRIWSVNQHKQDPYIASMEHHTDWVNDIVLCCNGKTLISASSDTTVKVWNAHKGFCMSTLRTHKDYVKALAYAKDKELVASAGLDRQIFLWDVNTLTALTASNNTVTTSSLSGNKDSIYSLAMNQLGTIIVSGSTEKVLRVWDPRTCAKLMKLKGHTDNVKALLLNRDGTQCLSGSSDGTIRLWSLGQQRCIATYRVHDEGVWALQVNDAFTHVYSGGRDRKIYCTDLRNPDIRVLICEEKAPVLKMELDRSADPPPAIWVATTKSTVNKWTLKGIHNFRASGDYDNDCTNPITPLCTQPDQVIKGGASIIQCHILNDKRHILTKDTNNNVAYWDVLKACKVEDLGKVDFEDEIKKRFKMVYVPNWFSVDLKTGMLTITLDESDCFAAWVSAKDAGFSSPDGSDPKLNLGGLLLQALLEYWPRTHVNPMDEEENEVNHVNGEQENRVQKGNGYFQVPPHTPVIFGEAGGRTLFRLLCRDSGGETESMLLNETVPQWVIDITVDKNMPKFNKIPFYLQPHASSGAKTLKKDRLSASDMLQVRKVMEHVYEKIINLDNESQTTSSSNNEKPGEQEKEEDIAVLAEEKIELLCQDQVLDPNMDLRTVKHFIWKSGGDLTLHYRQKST
So I've got a bunch of molecules here, and I need their pIC50 values.
Answers are plain numbers, as −log10 of the molar value.

The cases that follow already have their pIC50 on record.
# molecule, obs.value
data = [
    ("COc1cnc(-c2c(OC)ncnc2C2CC2)nc1NCc1ccc(-c2nc(C(F)(F)F)cn2C)cc1 [US20250289799, Example 96]", 8.32),
    ("C#Cc1cnc(-c2c(C)cnn2C(C)C)nc1NCc1ccc(-c2nc(C(F)(F)F)cn2C)cc1 [US20250289799, Example 203]", 8.85),
    ("COc1cnc(-c2c(OC)ncnc2C2CC2)nc1N(C)Cc1ccc(-c2nc(C(F)(F)F)cn2C)cc1 [US20250289799, Example 8]", 8.85),
    ("COc1cnc(-c2c(OC)ncnc2C2CC2)nc1NCc1ccc(-c2nc(C)cn2C(F)F)cc1 [US20250289799, Example 105]", 7.22),
]

# batch size: 3; output pIC50 per entry
1. CCOCCOc1ccc(CNc2nc(-c3c(OC)ncnc3C3CC3)ncc2OC)cc1 [US20250289799, Example 99]
2. Cc1cc(C(F)(F)F)nn1-c1ccc(CNc2nc(-c3ccccc3C3CC3)nc3ccoc23)cc1 [US20250289799, Example 174]
3. COc1cnc(-c2cccnc2C2CC2)nc1NCC1CCN(c2nc(C(F)(F)F)cn2C)CC1 [US20250289799, Example 152]

Ans.
1: 7.82; 2: 8.29; 3: 8.12

====

biological target: Ubiquitin carboxyl-terminal hydrolase 1/WD repeat-containing protein 48 (Homo sapiens, UniProt O94782+Q8TAF3); experiment: In Vitro USP1  Inhibitory Activity
Mark MET only when IC50 stays strictly below 2 nM. Values equal to the cut-off are NOT MET.

Below are worked cases with known answers.
# substance.smiles, classification
data = [
    ("CCOCCOc1ccc(CNc2nc(-c3ccccc3C(C)C)ncc2OC)cc1", "NOT MET"),
    ("CC(C)c1ccccc1-c1nc(NCc2ccc(-c3nc(C(F)(F)F)cn3C)cc2)c2occc2n1", "MET"),
    ("COc1cc(CNc2nc(-c3ccccc3C(C)C)nc3ccoc23)ccc1-c1nc(C(F)(F)F)cn1C", "MET"),
    ("COc1cnc(-c2c(OC)cnn2C(C)C)nc1NCc1ccc(-c2nc(C(F)(F)F)cn2C)cc1", "NOT MET"),
]

Qu. Does the reported IC50 of the following compound sit strictly below 2 nM? Cn1cc(C(F)(F)F)nc1-c1ccc(CNc2nc(-c3ccccc3C3CC3)nc3ccoc23)cc1
Ans. MET

====

biological target: Ubiquitin carboxyl-terminal hydrolase 1/WD repeat-containing protein 48 (Homo sapiens, UniProt O94782+Q8TAF3); assay: In Vitro USP1  Inhibitory Activity
Decision: IC50 beneath 8 nM gives Met; IC50 meeting or exceeding 8 nM gives Not met.

Examples with answers:
# compound, classification
records = [
    ("COc1cnc(-c2c(C)cnn2C2CC2)nc1N(C)Cc1ccc(-c2nc(C(F)(F)F)cn2C)cc1 [US20250289799, Example 198]", "Met"),
    ("COc1cnc(-c2cccc3ccn(C)c23)nc1NCc1ccc(-n2nc(C(F)(F)F)cc2C)cc1 [US20250289799, Example 144]", "Not met"),
    ("COc1ncnc(C2CC2)c1-c1nc(NCc2ccc(-c3nc(C(F)(F)F)cn3C)s2)c2occc2n1 [US20250289799, Example 113]", "Not met"),
    ("COc1ncnc(C2CC2)c1-c1ncc(OC(C)C)c(NCC2CCN(c3nc(C(F)(F)F)cn3C)CC2)n1 [US20250289799, Example 110]", "Not met"),
    ("CC(C)c1ccccc1-c1ncc(OC(F)F)c(NCc2ccc(-c3nc(C(F)(F)F)cn3C)cc2)n1 [US20250289799, Example 86]", "Met"),
    ("COc1cc(-n2nc(C(F)(F)F)cc2C)ccc1CNc1nc(-c2c(OC)ncnc2C2CC2)nc2ccoc12 [US20250289799, Example 121]", "Not met"),
]

Qu. Does the reported IC50 of the following compound sit strictly below 8 nM? COc1cnc(-c2c(OC)ncnc2C2CC2)nc1NCc1ccc(-n2nc(C(F)(F)F)cc2C)cc1 [US20250289799, Example 26]
Ans. Met
